Molecular target: T1, human glucagon receptor (human, UniProt P47871 26-477)
T1 construct: whole, on cells; reporter assay on whole cells
T1 sequence (P47871 26-477): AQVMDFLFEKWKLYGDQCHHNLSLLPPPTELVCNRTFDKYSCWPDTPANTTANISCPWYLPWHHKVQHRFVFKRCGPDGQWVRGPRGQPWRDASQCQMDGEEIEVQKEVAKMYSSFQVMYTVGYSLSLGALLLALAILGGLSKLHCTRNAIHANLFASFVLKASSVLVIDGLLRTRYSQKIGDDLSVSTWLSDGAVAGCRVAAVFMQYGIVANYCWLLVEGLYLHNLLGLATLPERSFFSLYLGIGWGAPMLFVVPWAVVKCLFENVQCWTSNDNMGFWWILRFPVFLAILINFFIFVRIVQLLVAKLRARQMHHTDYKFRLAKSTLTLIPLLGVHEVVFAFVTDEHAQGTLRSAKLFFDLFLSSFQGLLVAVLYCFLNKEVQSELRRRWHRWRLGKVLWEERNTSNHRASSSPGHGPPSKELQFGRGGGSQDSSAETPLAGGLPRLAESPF
Experiment: SPA displacement of [125I]-glucagon from human glucagon receptor BHK membranes
Protocol: 1. For the receptor binding assay 50 μl of the assay buffer was added to each well of an assay plate. [0603] 2. Test compounds were serially diluted to give the following concentrations: 8×10EE-7 M, 8×10EE-8 M, 8×10EE-9 M, 8×10EE-10 M, 8×10EE-11 M, 8×10EE-12 M and 8×10EE-13 M. Twenty-five μl were added to appropriate wells in the assay plate. [0604] 3. Cell membrane aliquots were thawed and diluted to their working concentration. […] The assay plate was read in a Perkin Elmer TopCount NXT instrument.
*1 amine or outer side, *2 acyl side, *3 side chain or, on linkers, in order; H or OH if unused. Side-chain parts run from the residue outwards. [ ]: non-standard residue; d: D form. The star is where a group is joined. C18 diacid = O=C(O)CCCCCCCCCCCCCCCCC(=O)*; γGlu = O=C(O)[C@H](CCC(=O)[*:2])N[*:1]; Desaminohistidyl = O=C(CCc1c[nH]cn1)*; Ac4c = NC1(C(=O)O)CCC1; Aib = CC(C)(N)C(=O)O
Exercise: state measured IC50 for each of the binders provided.
Use nM as the unit, but write only the number.

In: Consider the binder shown here: [Desaminohistidyl][Aib]HGTFTSDVSRYLEGQAAREFIAWLLK([Gly-Ser-Glu-Gly-Ser-γGlu-γGlu-C18 diacid])T-NH2 What is its recorded IC50?
Out: 8.9

In: Consider the binder shown here: XXHGTFTSDYSKYLEGRAAREFIAWLLKK (Imp (desamino-His) at 7; Acb at 8; Lys35 N-epsilon acylated with 17-carboxyheptadecanoyl-γGlu-γGlu-Ado-γGlu-Ado-γGlu-Ado-γGlu-; C-terminal amide (GLP-1(7-37) numbering)) What is its recorded IC50?
Out: 22.5

In: Consider the binder shown here: [Desaminohistidyl][Ac4c]HGTFTSDVSKYLEGRAAREFIAWLLK([Gly-Ser-Glu-Gly-Ser-γGlu-γGlu-C18 diacid])T-NH2 What is its recorded IC50?
Out: 7.2
